- systemTested: PAR4 (Homo sapiens)
- Construct: expressed in transfected cells; host or cells: HEK293 PAR4 Clone 1.2A (BMS Arctic ID 383940)
- Sequence (Q96RI0 18-385): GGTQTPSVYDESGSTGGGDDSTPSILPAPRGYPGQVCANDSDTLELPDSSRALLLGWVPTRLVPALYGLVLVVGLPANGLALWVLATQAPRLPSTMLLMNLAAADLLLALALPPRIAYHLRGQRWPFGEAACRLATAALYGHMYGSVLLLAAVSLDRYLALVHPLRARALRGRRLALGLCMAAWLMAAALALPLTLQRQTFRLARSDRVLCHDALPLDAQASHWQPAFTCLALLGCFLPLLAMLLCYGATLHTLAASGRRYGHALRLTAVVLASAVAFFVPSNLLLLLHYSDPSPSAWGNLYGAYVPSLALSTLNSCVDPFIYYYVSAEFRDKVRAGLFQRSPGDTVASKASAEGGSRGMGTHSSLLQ
- experimentalProtocol: PAR4 FLIPR assay (antagonism of agonist peptide-induced calcium mobilization)
- Format: cell-based
- Description: The FLIPR assay is an exemplary in vitro assay for measuring the activity of the PAR4 antagonists of the present invention. In this assay, intracellular calcium mobilization is induced in PAR4 expressing cells by a PAR4 agonist and calcium mobilization is monitored. HEK293 cells stably expressing PAR4 were generated by a standard method of transfection of human PAR4 (F2R23) cDNA expression vector and selected based on PAR4 protein expression or mRNA expression. […]
Some molecules, each annotated with its measured IC50.
# output: bare number, implied unit µM

Example entries and their recorded answers appear below.
INSERT INTO results (molecule, observedmeasurement) VALUES
  ('COc1cnc2c(-c3nc4c(C)cc5c(c4s3)OC[C@H](COC(=O)Nc3cnc(Cl)nc3)O5)cc(C)cc2n1', 0.0083),
  ('COc1cnc2c(-c3nc4ccc5c(c4s3)C[C@](C)(CO)O5)cc(C)cc2n1 (single isomer, unassigned)', 0.13);

Which IC50 value belongs to COc1cnc2c(-c3nc4c(F)cc5c(c4s3)OC[C@H](COC(=O)Nc3ccnc(C)c3)O5)cc(CO)cc2n1 ?
0.015

Any idea what IC50 was measured for COc1cnc2c(-c3nc4ccc5c(c4s3)OC[C@H](COC(=O)Nc3cncc(C#N)c3)O5)cc(C)cc2n1 ?
0.0019
